Exercise: state measured GI50 for each of the compounds provided.
Test system: NCI/ADR-RES
ASSAY REMARKS: NCI tumour cell line growth inhibition, 48 h
Active and inactive are the calls of the source. Cut-off read from the data, not from the text of the source: active = GI50 up to about 1.1 µM and inactive = higher.

Examples with their reported GI50 follow.
- C[n+]1cccc2ccc(OC(=O)c3ccccc3)cc21: > 100 µM (inactive)
- CS(=O)(=O)OCCN(CCOS(C)(=O)=O)c1ccc(/C=N/c2cccc(Cl)c2)cc1: 3.61 µM (inactive)

For the 3 compounds below, give their GI50 values.
1. COc1cc(C(=O)N(Cc2cccnc2)C(=S)N(Cc2cccnc2)C(=O)c2cc(OC)c(OC)c(OC)c2)cc(OC)c1OC
2. C#C/C=C\CCCCCCCCCCCCCC/C=C\CCCCC#CC(O)C#CCCCC/C=C\CCCCCC/C=C/C(O)C#C (stereo not given)
3. COC(=O)c1ccc(OCCn2nnc(C(=O)NN)c2C(=O)NN)cc1

Result:
["> 100 µM (inactive)", "31.5 µM (inactive)", "> 100 µM (inactive)"]
